From: ChEMBL document CHEMBL1949503

# Species: Homo sapiens
# assayComment: Inhibition of human choline kinase assessed as incorporation of 14C from [methyl-14C]choline into phosphocholine at 50 uM after 20 mins by liquid scintillation counter
readoutKind: inhibition (%)
# number only, unit % dropped from output

Inquiry: Reported inhibition for `Nc1ncnc2c1ncn2Cc1ccc(CCc2ccc(C[n+]3ccc(N4CCCC4)cc3)cc2)cc1` : what is it?
Reply text: 46.9

Inquiry: Reported inhibition for `Nc1ncn(Cc2ccc(CCCCc3ccc(C[n+]4ccc(N5CCCC5)cc4)cc3)cc2)c2ncnc1-2` : what is it?
Reply text: 59.9

Inquiry: Reported inhibition for `CN(C)c1cc[n+](Cc2ccc(CCCCc3ccc(Cn4cnc5c(N)ncnc54)cc3)cc2)cc1` : what is it?
Reply text: 89.7

Inquiry: Reported inhibition for `Nc1ncnc2c1ncn2Cc1ccc(-c2ccc(C[n+]3ccc(N4CCCC4)cc3)cc2)cc1` : what is it?
Reply text: 72.8

Inquiry: Reported inhibition for `CN(C)c1cc[n+](Cc2ccc(Cn3cnc(N)c4ncnc3-4)cc2)cc1` : what is it?
Reply text: 50.2

Inquiry: Reported inhibition for `CN(C)c1cc[n+](Cc2ccc(CCc3ccc(Cn4cnc5c(N)ncnc54)cc3)cc2)cc1` : what is it?
Reply text: 81

Inquiry: Reported inhibition for `Nc1ncnc2c1ncn2Cc1ccc(CCCCc2ccc(C[n+]3ccc(N4CCCC4)cc3)cc2)cc1` : what is it?
Reply text: 41.9

Inquiry: Reported inhibition for `CN(C)c1cc[n+](Cc2ccc(-c3ccc(Cn4cnc5c(N)ncnc54)cc3)cc2)cc1` : what is it?
Reply text: 51

Inquiry: Reported inhibition for `CN(C)c1cc[n+](Cc2ccc(-c3ccc(Cn4cnc(N)c5ncnc4-5)cc3)cc2)cc1` : what is it?
Reply text: 71.4

Inquiry: Reported inhibition for `CN(C)c1cc[n+](Cc2ccc(Cn3cnc4c(N)ncnc43)cc2)cc1` : what is it?
Reply text: 54.1

Inquiry: Reported inhibition for `Nc1ncnc2c1ncn2Cc1ccc(C[n+]2ccc(N3CCCC3)cc2)cc1` : what is it?
Reply text: 27

Inquiry: Reported inhibition for `Nc1ncn(Cc2ccc(CCc3ccc(C[n+]4ccc(N5CCCC5)cc4)cc3)cc2)c2ncnc1-2` : what is it?
Reply text: 24.8

Inquiry: Reported inhibition for `CN(C)c1cc[n+](Cc2ccc(CCCCc3ccc(Cn4cnc(N)c5ncnc4-5)cc3)cc2)cc1` : what is it?
Reply text: 68.2

----------
# System: HepG2
# assayComment: Cytotoxicity against human HepG2 cells at 10 uM after 24 hrs using crystal violet staining by microplate reader analysis
# Type: functional
# experimentalParameters: HepG2, 24 h
Kindly supply the reported inhibition at 10 µM values for the records listed here.
# number only, unit % dropped from output

Inquiry: Reported inhibition at 10 µM for `CN(C)c1cc[n+](Cc2ccc(Cn3cnc4c(N)ncnc43)cc2)cc1` : what is it?
Reply text: 0

Inquiry: Reported inhibition at 10 µM for `Nc1ncn(Cc2ccc(CCCCc3ccc(C[n+]4ccc(N5CCCC5)cc4)cc3)cc2)c2ncnc1-2` : what is it?
Reply text: 13.7

Inquiry: Reported inhibition at 10 µM for `CN(C)c1cc[n+](Cc2ccc(CCCCc3ccc(Cn4cnc5c(N)ncnc54)cc3)cc2)cc1` : what is it?
Reply text: 10.2

----------
# Tested on: HepG2
# assayComment: Cytotoxicity against human HepG2 cells at 10 uM after 24 hrs using crystal violet staining by microplate reader analysis
# Assay type: functional
# experimentalParameters: HepG2, 24 h
readoutKind: inhibition at 10 µM (%)
# number only, unit % dropped from output

Inquiry: Reported inhibition at 10 µM for `Nc1ncnc2c1ncn2Cc1ccc(CCCCc2ccc(C[n+]3ccc(N4CCCC4)cc3)cc2)cc1` : what is it?
Reply text: 15.4

Inquiry: Reported inhibition at 10 µM for `CN(C)c1cc[n+](Cc2ccc(-c3ccc(Cn4cnc5c(N)ncnc54)cc3)cc2)cc1` : what is it?
Reply text: 0

Inquiry: Reported inhibition at 10 µM for `Nc1ncnc2c1ncn2Cc1ccc(CCc2ccc(C[n+]3ccc(N4CCCC4)cc3)cc2)cc1` : what is it?
Reply text: 30.1

Inquiry: Reported inhibition at 10 µM for `Nc1ncnc2c1ncn2Cc1ccc(-c2ccc(C[n+]3ccc(N4CCCC4)cc3)cc2)cc1` : what is it?
Reply text: 10.4

Inquiry: Reported inhibition at 10 µM for `Nc1ncnc2c1ncn2Cc1ccc(C[n+]2ccc(N3CCCC3)cc2)cc1` : what is it?
Reply text: 0

----------
# System: HepG2
# assayComment: Cytotoxicity against human HepG2 cells at 10 uM after 24 hrs using crystal violet staining by microplate reader analysis
# Assay type: functional
# experimentalParameters: HepG2, 24 h
readoutKind: inhibition at 10 µM (%)
# number only, unit % dropped from output

Inquiry: Reported inhibition at 10 µM for `CN(C)c1cc[n+](Cc2ccc(CCc3ccc(Cn4cnc5c(N)ncnc54)cc3)cc2)cc1` : what is it?
Reply text: 10.5

Inquiry: Reported inhibition at 10 µM for `Nc1ncn(Cc2ccc(CCc3ccc(C[n+]4ccc(N5CCCC5)cc4)cc3)cc2)c2ncnc1-2` : what is it?
Reply text: 11.6

Inquiry: Reported inhibition at 10 µM for `CN(C)c1cc[n+](Cc2ccc(CCCCc3ccc(Cn4cnc(N)c5ncnc4-5)cc3)cc2)cc1` : what is it?
Reply text: 14.3

Inquiry: Reported inhibition at 10 µM for `CN(C)c1cc[n+](Cc2ccc(Cn3cnc(N)c4ncnc3-4)cc2)cc1` : what is it?
Reply text: 10.3

Inquiry: Reported inhibition at 10 µM for `CN(C)c1cc[n+](Cc2ccc(-c3ccc(Cn4cnc(N)c5ncnc4-5)cc3)cc2)cc1` : what is it?
Reply text: 10

----------
# System: HepG2
# assayComment: Cytotoxicity against human HepG2 cells after 24 hrs using crystal violet staining by microplate reader analysis
# Assay type: functional, cell-based
# experimentalParameters: HepG2, 24 h
readoutKind: pIC50
For clarity, pIC50 is expressed as the negative log10 of concentration in mol/L.

Inquiry: Please provide the recorded pIC50 for `CN(C)c1cc[n+](Cc2ccc(CCCCc3ccc(Cn4cnc(N)c5ncnc4-5)cc3)cc2)cc1` , tested on HepG2.
Reply text: 4.41

Inquiry: Please provide the recorded pIC50 for `CN(C)c1cc[n+](Cc2ccc(CCCCc3ccc(Cn4cnc5c(N)ncnc54)cc3)cc2)cc1` , tested on HepG2.
Reply text: 4.30

----------
# Organism: Homo sapiens
# assayComment: Inhibition of human choline kinase assessed as incorporation of 14C from [methyl-14C]choline into phosphocholine at 10 uM after 20 mins by liquid scintillation counter
readoutKind: inhibition (%)
# number only, unit % dropped from output

Inquiry: Reported inhibition for `CN(C)c1cc[n+](Cc2ccc(CCCCc3ccc(Cn4cnc5c(N)ncnc54)cc3)cc2)cc1` : what is it?
Reply text: 66.7

Inquiry: Reported inhibition for `Nc1ncn(Cc2ccc(CCCCc3ccc(C[n+]4ccc(N5CCCC5)cc4)cc3)cc2)c2ncnc1-2` : what is it?
Reply text: 22.6

Inquiry: Reported inhibition for `Nc1ncnc2c1ncn2Cc1ccc(-c2ccc(C[n+]3ccc(N4CCCC4)cc3)cc2)cc1` : what is it?
Reply text: 50.2

Inquiry: Reported inhibition for `Nc1ncn(Cc2ccc(CCc3ccc(C[n+]4ccc(N5CCCC5)cc4)cc3)cc2)c2ncnc1-2` : what is it?
Reply text: 0.1

Inquiry: Reported inhibition for `Nc1ncnc2c1ncn2Cc1ccc(CCCCc2ccc(C[n+]3ccc(N4CCCC4)cc3)cc2)cc1` : what is it?
Reply text: 36.9

Inquiry: Reported inhibition for `CN(C)c1cc[n+](Cc2ccc(-c3ccc(Cn4cnc5c(N)ncnc54)cc3)cc2)cc1` : what is it?
Reply text: 37.6

Inquiry: Reported inhibition for `CN(C)c1cc[n+](Cc2ccc(-c3ccc(Cn4cnc(N)c5ncnc4-5)cc3)cc2)cc1` : what is it?
Reply text: 62.3

Inquiry: Reported inhibition for `CN(C)c1cc[n+](Cc2ccc(Cn3cnc4c(N)ncnc43)cc2)cc1` : what is it?
Reply text: 46.7

----------
# assayComment: Inhibition of human choline kinase assessed as incorporation of 14C from [methyl-14C]choline into phosphocholine after 20 mins by liquid scintillation counter
readoutKind: pIC50
For clarity, pIC50 is expressed as the negative log10 of concentration in mol/L.

Inquiry: Reported pIC50 for `CN(C)c1cc[n+](Cc2ccc(CCCCc3ccc(Cn4cnc5c(N)ncnc54)cc3)cc2)cc1` : what is it?
Reply text: 4.97

Inquiry: Reported pIC50 for `CN(C)c1cc[n+](Cc2ccc(-c3ccc(Cn4cnc(N)c5ncnc4-5)cc3)cc2)cc1` : what is it?
Reply text: 5.21

----------
Kindly supply the reported inhibition values for the records listed here.
# Organism: Homo sapiens
# assayComment: Inhibition of human choline kinase assessed as incorporation of 14C from [methyl-14C]choline into phosphocholine at 10 uM after 20 mins by liquid scintillation counter
# number only, unit % dropped from output

Inquiry: Reported inhibition for `Nc1ncnc2c1ncn2Cc1ccc(CCc2ccc(C[n+]3ccc(N4CCCC4)cc3)cc2)cc1` : what is it?
Reply text: 28.6

Inquiry: Reported inhibition for `Nc1ncnc2c1ncn2Cc1ccc(C[n+]2ccc(N3CCCC3)cc2)cc1` : what is it?
Reply text: 0

Inquiry: Reported inhibition for `CN(C)c1cc[n+](Cc2ccc(CCCCc3ccc(Cn4cnc(N)c5ncnc4-5)cc3)cc2)cc1` : what is it?
Reply text: 61.3

Inquiry: Reported inhibition for `CN(C)c1cc[n+](Cc2ccc(CCc3ccc(Cn4cnc5c(N)ncnc54)cc3)cc2)cc1` : what is it?
Reply text: 38.6

Inquiry: Reported inhibition for `CN(C)c1cc[n+](Cc2ccc(Cn3cnc(N)c4ncnc3-4)cc2)cc1` : what is it?
Reply text: 25
